growth inhibition (GI) for assorted compounds
# Tested on: LOX IMVI
# EXPERIMENT: Growth inhibition of human LOXIMVI cells after 48 hrs by cell counting analysis
# Format: functional
# DETAILS: at 10 µM
Form entry: value (%) — number only.

                            compound_string  assayed_target  result
0  CN1CCN(CCC(=O)Nc2nc(-c3ccc(Cl)cc3)cs2)CC1        LOX IMVI    12.8
1  CN1CCN(CCC(=O)Nc2nc(-c3ccc(Br)cc3)cs2)CC1        LOX IMVI    31.8

Field: next compound
Req: Look up growth inhibition (GI) for this compound: O=C(CCCl)Nc1nc(-c2ccc(Cl)cc2)cs1
Resp: 43.1

###

# System: IGROV-1
# EXPERIMENT: Growth inhibition of human IGROV1 cells after 48 hrs by cell counting analysis
# Format: functional
# DETAILS: at 10 µM
Class 1.0: growth inhibition (GI) at least 30%. Class 0.0: growth inhibition (GI) below 30%.

In [3]: df
Out[3]:
                            compound_string  group_label
0  O=C(CN1CCN(c2ccccc2)CC1)Nc1nc(-c2ccc(Br)cc2)cs1          1.0

Req: I'd appreciate it if you could say whether O=C(CCCl)Nc1nc(-c2ccc(Cl)cc2)cs1 has growth inhibition (GI) at least equal to 30%.
Resp: 1.0

Req: Threshold query (growth inhibition (GI) >= 30%) on O=C(CN1CCN(c2ccccc2)CC1)Nc1nc(-c2ccc(Cl)cc2)cs1
Resp: 0.0

###

# Test system: MOLT-4
# EXPERIMENT: Growth inhibition of human MOLT4 cells after 48 hrs by cell counting analysis
# Assay type: functional
# DETAILS: at 10 µM
Each entry gets 0 (no) if its growth inhibition (GI) stays under 40%, and 1 (yes) if its growth inhibition (GI) is 40% or above.

>>> print(df.to_string())
                            compound_string  group_label
0           Cc1ccc(-c2csc(NC(=O)CCCl)n2)cc1      1 (yes)
1  O=C(CCN1CCN(c2ccccc2)CC1)Nc1nc(-c2ccc(Cl)cc2)cs1       0 (no)
2  CN1CCN(CCC(=O)Nc2nc(-c3ccc(Br)cc3)cs2)CC1       0 (no)
3  O=C(CN1CCN(c2ccccc2)CC1)Nc1nc(-c2ccc(Br)cc2)cs1      1 (yes)
4  O=C(CN1CCN(c2ccccc2)CC1)Nc1nc(-c2ccc(Cl)cc2)cs1       0 (no)
5  Cc1ccc(-c2csc(NC(=O)CCN3CCN(c4ccccc4)CC3)n2)cc1       0 (no)
6  CN1CCN(CCC(=O)Nc2nc(-c3ccc(Cl)cc3)cs2)CC1      1 (yes)
7  Cc1ccc(-c2csc(NC(=O)CN3CCN(c4ccccc4)CC3)n2)cc1       0 (no)
8  Cn1cc(NC(=O)c2cc(NC(=O)CNC(=N)N)cn2C)cc1C(=O)NCCC(=N)N       0 (no)
9   Cc1ccc(-c2csc(NC(=O)CN3CCN(C)CC3)n2)cc1       0 (no)

Would you kindly look at the next entry?
Req: Is the recorded value of growth inhibition (GI) equal to or greater than 40% for this molecule? O=C(CCCl)Nc1nc(-c2ccc(Cl)cc2)cs1
Resp: 1 (yes)

###

# Test system: CCRF-CEM
# EXPERIMENT: Growth inhibition of human CCRF-CEM cells after 48 hrs by cell counting analysis
# Format: functional
# DETAILS: at 10 µM
ATTRIBUTE MEASURED: growth inhibition (GI)

Recorded results for 4 molecules are shown here.
>>> df
                            compound_string  assayed_target      attribute_measured  result
0  O=C(CN1CCN(c2ccccc2)CC1)Nc1nc(-c2ccc(Br)cc2)cs1        CCRF-CEM  growth inhibition (GI)   22.2%
1  O=C(CN1CCN(c2ccccc2)CC1)Nc1nc(-c2ccc(Cl)cc2)cs1        CCRF-CEM  growth inhibition (GI)    <10%
2  O=C(CCN1CCN(c2ccccc2)CC1)Nc1nc(-c2ccc(Cl)cc2)cs1        CCRF-CEM  growth inhibition (GI)   16.3%
3  CN1CCN(CCC(=O)Nc2nc(-c3ccc(Cl)cc3)cs2)CC1        CCRF-CEM  growth inhibition (GI)   18.3%

Turning now to a further molecule:
Req: Look at this molecule and give its reported growth inhibition (GI). Cn1cc(NC(=O)c2cc(NC(=O)CNC(=N)N)cn2C)cc1C(=O)NCCC(=N)N
Resp: 15.3%

###

Below, each of the compounds is paired with its reported growth inhibition (GI) value.
# EXPERIMENT: Growth inhibition of human NCI-322M cells after 48 hrs by cell counting analysis
# Type: functional
# DETAILS: at 10 µM
Return type: number; implicit unit %.

Answered cases to consult:
In [3]: df
Out[3]:
                                   compound  uom  result
0  CN1CCN(CCC(=O)Nc2nc(-c3ccc(Br)cc3)cs2)CC1    %    17.2
1  O=C(CN1CCN(c2ccccc2)CC1)Nc1nc(-c2ccc(Br)cc2)cs1    %    20.5
2  Cn1cc(NC(=O)c2cc(NC(=O)CNC(=N)N)cn2C)cc1C(=O)NCCC(=N)N [NETROPSIN]    %    11.1
3  O=C(CCN1CCN(c2ccccc2)CC1)Nc1nc(-c2ccc(Cl)cc2)cs1    %    27.8
4          O=C(CCCl)Nc1nc(-c2ccc(Cl)cc2)cs1    %    16.9

Req: So what does the record say about growth inhibition (GI) for Cc1ccc(-c2csc(NC(=O)CN3CCN(c4ccccc4)CC3)n2)cc1 ?
Resp: 21.4

Req: Which growth inhibition (GI) value is on record for Cc1ccc(-c2csc(NC(=O)CCN3CCN(c4ccccc4)CC3)n2)cc1 ?
Resp: 15.6

Req: GET /values?readout=growth inhibition (GI)&item= Cc1ccc(-c2csc(NC(=O)CCCl)n2)cc1
Resp: 55.9

###

Overview of reported growth inhibition (GI) across a group of compounds:
# Test system: UO-31
# EXPERIMENT: Growth inhibition of human UO31 cells after 48 hrs by cell counting analysis
# Assay type: functional
# DETAILS: at 10 µM
Form entry: value (%) — number only.

Req: What does the record list as growth inhibition (GI) for O=C(CCN1CCN(c2ccccc2)CC1)Nc1nc(-c2ccc(Cl)cc2)cs1 ?
Resp: 38.6

Req: Give its growth inhibition (GI) value. Item: O=C(CCCl)Nc1nc(-c2ccc(Cl)cc2)cs1
Resp: 70.1

Req: Fill blank: measured growth inhibition (GI) of the compound O=C(CN1CCN(c2ccccc2)CC1)Nc1nc(-c2ccc(Br)cc2)cs1 is ____.
Resp: 54.6

Req: Which growth inhibition (GI) value is on record for O=C(CN1CCN(c2ccccc2)CC1)Nc1nc(-c2ccc(Cl)cc2)cs1 ?
Resp: 34.4

Req: Data request, read-out growth inhibition (GI), for CN1CCN(CCC(=O)Nc2nc(-c3ccc(Br)cc3)cs2)CC1
Resp: 50.8

Req: Reported growth inhibition (GI), compound Cc1ccc(-c2csc(NC(=O)CN3CCN(C)CC3)n2)cc1 : ____
Resp: 19.9

Req: Param item = Cc1ccc(-c2csc(NC(=O)CN3CCN(c4ccccc4)CC3)n2)cc1 ; retrieve measured growth inhibition (GI).
Resp: 48.2

Req: Which measured growth inhibition (GI) value corresponds to CN1CCN(CCC(=O)Nc2nc(-c3ccc(Cl)cc3)cs2)CC1 ?
Resp: 48.6

Req: Using the record for Cc1ccc(-c2csc(NC(=O)CCCl)n2)cc1 , report its growth inhibition (GI).
Resp: 61.3

Req: GET /values?readout=growth inhibition (GI)&item= Cn1cc(NC(=O)c2cc(NC(=O)CNC(=N)N)cn2C)cc1C(=O)NCCC(=N)N [NETROPSIN]
Resp: 30.6

Req: Could you tell me which growth inhibition (GI) is on file for Cc1ccc(-c2csc(NC(=O)CCN3CCN(c4ccccc4)CC3)n2)cc1 ?
Resp: 41.2

###

Measured growth inhibition (GI), listed per entry.
# Tested on: SNB-19
# EXPERIMENT: Growth inhibition of human SNB19 cells after 48 hrs by cell counting analysis
# Assay type: functional
# DETAILS: at 10 µM
Expressed in %, but write only the number.

Past entries and their recorded results:
>>> print(df.to_string())
                            compound_string  assayed_target  result
0  Cn1cc(NC(=O)c2cc(NC(=O)CNC(=N)N)cn2C)cc1C(=O)NCCC(=N)N          SNB-19    10.5
1  CN1CCN(CCC(=O)Nc2nc(-c3ccc(Br)cc3)cs2)CC1          SNB-19    20.9
2           Cc1ccc(-c2csc(NC(=O)CCCl)n2)cc1          SNB-19    73.1
3  CN1CCN(CCC(=O)Nc2nc(-c3ccc(Cl)cc3)cs2)CC1          SNB-19    19.7
4          O=C(CCCl)Nc1nc(-c2ccc(Cl)cc2)cs1          SNB-19    26.2

Pending compound:
Req: What value of measured growth inhibition (GI) is listed for O=C(CN1CCN(c2ccccc2)CC1)Nc1nc(-c2ccc(Br)cc2)cs1 ?
Resp: 23.9
